The entries below come with measured normalized growth values attached.
# assay.remarks: chemical genetic growth profiling, strain panel (AID 1159580);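 also: tested at 20 µM; growth read once vehicle control cultures reached saturation at 30 °C; 1 = growth at the plate median or of vehicle wells; lower values mean less growth of the strain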
# test.settings: S. cerevisiae deletion strains, growth OD, locus YNL322C, strain KRE1, hits give low values
Out of some 5,500 compounds screened, about 2,000 (36%) were called active. Roughly 18% stayed inconclusive and do not appear here. This is one part of the list.
reported.metric: normalized growth

compound	val
NC(=O)c1ccc([N+](=O)[O-])cc1Cl	0.981
O=[N+]([O-])c1cccnc1Oc1ccc(Cl)cc1	0.933
C[C@@H]1CCC2[C@](C)(CO)[C@@H](O)CC[C@]2(C)[C@@]12CC[C@@](CO)(CCO)O2 (stereo partly drawn)	1.01
N#Cc1c(Cl)cccc1N1CCCC1	0.929
CCOC(=O)/C(C#N)=C/N=C(N/N=C\c1c(Cl)cccc1Cl)SC	0.968
O=C(O)c1cc(O)ccc1O	1
COc1cc(C)c2c(=O)c3c(O)cc(OC)cc3oc2c1	1.01
O=C(O/N=C1/CCCc2[nH]c3ccccc3c21)c1ccc(Cl)cc1Cl	0.993
O=C1c2ccccc2C(=O)N1CN1CCC(O)(c2ccc(Cl)cc2)CC1	0.985
NCCCN	0.996
NC(N)=NC(N)=Nc1cc(Cl)cc(Cl)c1	0.999
CC(=O)O[C@]1(C(C)=O)CC[C@H]2[C@@H]3C=C(Cl)C4=CC(=O)[C@@H]5C[C@@H]5[C@]4(C)[C@H]3CC[C@@]21C	0.988
O=C(CCCN1CCC2(CC1)C(=O)N(CCc1ccc(N=C=S)cc1)CN2c1ccccc1)c1ccc(F)cc1	0.948
COc1cc(NC(=S)N2CCN(c3ccccc3OC)CC2)c(OC)cc1Cl	0.997
O=C(CCCN1CCC2(CC1)C(=O)NCN2c1ccccc1)c1ccc(F)cc1	0.999
N#C/C(=C\c1c[nH]c2ccccc12)C(=O)c1ccc(O)c(O)c1	1
COC(=O)[C@H]1[C@H]2C[C@H]3c4[nH]c5cc(OC)ccc5c4CCN3C[C@H]2C[C@@H](OC(=O)c2cc(OC)c(OC)c(OC)c2)[C@@H]1OC	1
CC(C)(C)C1=CC(=O)C=C(C(C)(C)C)C1=O	1
COC(=O)c1cccnc1Sc1ccc(C)cc1	0.965
O=C1NCN(c2ccccc2)C12CCN(CCCC(c1ccc(F)cc1)c1ccc(F)cc1)CC2	1
O=C(Nc1ccc(Cl)cc1)N1CCN(c2ncccc2C(F)(F)F)CC1	0.988
COc1ccccc1N1CCN(C(=O)C(C)Nc2ccccn2)CC1 (stereo not drawn)	0.999
C[C@@H](CO)NC(=O)C1C=C2c3cccc4[nH]cc(c34)C[C@H]2N(C)C1 (stereo partly drawn)	1.01
COc1ccc(Br)c(-c2nnc(-c3ccccc3[N+](=O)[O-])o2)c1	1.01
CCn1nc(C)cc1C(=O)O	0.999
NC(=NS(=O)(=O)c1cc(Cl)c(Oc2ccc([N+](=O)[O-])cc2Cl)c(Cl)c1)c1cccnc1	1.01
COc1ccc(OC)c(CNC(=O)Cc2cccs2)c1	1
O=C1C(c2ccc(Br)cc2)=C(O)c2ccccc21	0.938
NC[C@H]1O[C@H](OC2[C@@H](N)C[C@@H](N)[C@H](O[C@H]3O[C@H](CO)[C@@H](O)[C@H](N)[C@H]3O)[C@H]2O)[C@H](O)[C@@H](O)[C@@H]1O (stereo partly drawn)	0.996
Cn1c(SCc2ccccc2)nnc1-c1ccc2ncccc2c1	0.992
COC1=CC(=O)C=C(OC)C1=O	0.993
NNC(=O)c1cccnc1Oc1ccccc1	1.01
CN1c2ccccc2C(=O)/C(=N/Nc2ccccc2F)S1(=O)=O	1.01
CC(=O)C1=C(C)Nc2ccccc2S1	1.02
CCOC(=O)C1=C(O)C(=O)N(Cc2ccccc2)C1	0.996
Cc1cc(N)c2ccccc2[n+]1CCCCCCCCCC[n+]1c(C)cc(N)c2ccccc21	0.0558
CC1(C)S[C@@H]2[C@H](NC(=O)[C@@H](N)c3ccc(O)cc3)C(=O)N2[C@H]1C(=O)O	1.01
N#Cc1c(Cl)cccc1Cl	1.01
NC(N)=Nc1ccc(Cl)cc1	1.01
O=C1CC(=O)CC(c2ccc(Cl)c(Cl)c2)C1	0.976
Nc1nc(/C(=C/CC(=O)O)C(=O)N[C@@H]2C(=O)N3C(C(=O)O)=CCS[C@H]23)cs1	0.994
NC(N)=NC(N)=Nc1cccc(Cl)c1	0.995
COC(=O)C(N)CS (stereo not drawn)	1
O=C(O)C1=CC(=C(c2ccc(O)c(C(=O)O)c2)c2ccc(O)c(C(=O)O)c2)C=CC1=O	0.93
Cc1ccc(OS(=O)(=O)c2ccc(Cl)cc2)c([N+](=O)[O-])n1	0.976
O=C(Nc1ccc(OC(F)(F)F)cc1)Nc1cccc(C(=O)O)c1	0.999
CCOC(=O)c1cnc2n(c1=O)CCS2	1.01
Cn1c2c(c3ccccc31)/C(=N\OC(=O)c1ccc(Cl)cc1Cl)CCC2	1.01
